Biological target: T1, human Nectin-4 (Homo sapiens, UniProt Q96NY8)
T1 sequence (Q96NY8 32-510): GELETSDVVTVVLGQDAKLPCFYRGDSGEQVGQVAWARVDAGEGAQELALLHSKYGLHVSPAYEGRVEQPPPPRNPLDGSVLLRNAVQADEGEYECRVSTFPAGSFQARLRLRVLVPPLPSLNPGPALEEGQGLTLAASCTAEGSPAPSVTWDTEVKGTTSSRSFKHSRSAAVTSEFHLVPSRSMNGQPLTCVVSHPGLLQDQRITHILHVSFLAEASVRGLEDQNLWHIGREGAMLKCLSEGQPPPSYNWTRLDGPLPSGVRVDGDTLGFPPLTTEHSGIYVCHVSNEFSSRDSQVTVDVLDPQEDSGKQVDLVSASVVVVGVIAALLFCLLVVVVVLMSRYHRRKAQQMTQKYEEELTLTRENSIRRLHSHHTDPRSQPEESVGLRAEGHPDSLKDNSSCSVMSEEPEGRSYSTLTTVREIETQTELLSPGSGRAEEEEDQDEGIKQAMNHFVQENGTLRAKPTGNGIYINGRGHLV
Test: Binding to human Nectin-4 by SPR
Conditions: SPR; human IgG1 isotype antibodies; first set (Table 4)
Provide the reported Kd of each item.
Return type: number; implicit unit nM.

Request: Please list Kd recorded for the molecule 5E7 (antibody, V domains shown) VH: QVQLQQPGAELVKPGASVKLSCKASGYIFTSYWMHWVKQRPGQGLEWIGEIDPSDSYTNYNQKFKGKATLTLDKSSSTTYMQLSSLTSEDSAVYYCVRGYGNYGDYWGQGTTLTVSSASTKGP VL: DVVMTQAAFSNPVTLGTSASISCRSSKSLLHSNGITYLYWYLQKPGQSPQLLIYQMSNLASGVPDRFSSSGSGTDFTLRISRVEAEDVGVYYCAQNLELPWTFGGGTKLEIKRTVAAP
Response: 5.9

Request: Please list Kd recorded for the molecule H2L0 (antibody, human IgG1, V domains shown, human IgG1 isotype) VH: QVQLVQSGAEVKKPGASVKVSCKASGYTFTSYWMHWVRQAPGQGLEWMGEIDPSDSYTNYNQKFKGRVTMTLDKSTSTTYMELSSLRSEDTAVYYCARGYGNYGDYWGQGTLVTVSS VL: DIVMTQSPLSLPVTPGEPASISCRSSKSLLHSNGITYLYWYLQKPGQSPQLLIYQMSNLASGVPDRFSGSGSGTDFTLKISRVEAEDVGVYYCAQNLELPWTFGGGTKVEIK
Response: 46.4

Request: Please list Kd recorded for the molecule H0L0 (antibody, human IgG1, V domains shown, human IgG1 isotype; also called HOLO; humanized 5E7 variant H0L0) VH: QVQLVQSGAEVKKPGASVKVSCKASGYTFTSYWMHWVRQAPGQGLEWMGEIDPSDSYTNYNQKFKGRVTMTRDTSTSTVYMELSSLRSEDTAVYYCARGYGNYGDYWGQGTLVTVSS VL: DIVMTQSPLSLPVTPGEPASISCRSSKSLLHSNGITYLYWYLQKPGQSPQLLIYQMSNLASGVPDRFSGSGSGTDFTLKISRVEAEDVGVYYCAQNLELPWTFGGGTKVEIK
Response: 80.2

Request: Please list Kd recorded for the molecule H3L0 (antibody, human IgG1, V domains shown, human IgG1 isotype) VH: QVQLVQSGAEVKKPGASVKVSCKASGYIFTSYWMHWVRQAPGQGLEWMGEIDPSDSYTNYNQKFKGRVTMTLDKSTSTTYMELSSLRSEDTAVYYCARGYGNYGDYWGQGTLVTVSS VL: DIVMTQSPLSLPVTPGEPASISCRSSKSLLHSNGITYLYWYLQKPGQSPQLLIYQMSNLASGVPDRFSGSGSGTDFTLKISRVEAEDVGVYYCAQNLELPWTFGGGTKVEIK
Response: 35.8
